The following sequences are listed with their measured solubility values.
Test: Solubilization of 1 mg/mL peptides in culture medium, DMSO or urea
Assay type: physicochemical
Details: 1 mg/mL peptide; read-out: Solubility, Complete medium
Where no end group is shown, it is not given here.

Reference set (10 entries):
>  <polymerSequence>
WSLLRIVYNRHSHSK [compound 16]

>  <valueKind>
solubility

>  <observedMeasurement>
< 1 mg/mL

$$$$
>  <polymerSequence>
TRHRHVPRFLPLRHV [compound 8]

>  <valueKind>
solubility

>  <observedMeasurement>
> 1 mg/mL

$$$$
>  <polymerSequence>
LFLLSGVFVPDLHEG [compound 24]

>  <valueKind>
solubility

>  <observedMeasurement>
< 1 mg/mL

$$$$
>  <polymerSequence>
HGFFAGGLAHWHGHR [compound 20]

>  <valueKind>
solubility

>  <observedMeasurement>
< 1 mg/mL

$$$$
>  <polymerSequence>
HRHFRWLNGMPRLLG [compound 25]

>  <valueKind>
solubility

>  <observedMeasurement>
< 1 mg/mL

$$$$
>  <polymerSequence>
GRVPSMFGGHFFFSR [compound 15]

>  <valueKind>
solubility

>  <observedMeasurement>
< 1 mg/mL

$$$$
>  <polymerSequence>
GVLSSIFSWRLVALH [compound 12]

>  <valueKind>
solubility

>  <observedMeasurement>
< 1 mg/mL

$$$$
>  <polymerSequence>
RMLGFMSGSWRTPVR [compound 11]

>  <valueKind>
solubility

>  <observedMeasurement>
> 1 mg/mL

$$$$
>  <polymerSequence>
ARWMHRHHGWSDRHR [compound 2]

>  <valueKind>
solubility

>  <observedMeasurement>
> 1 mg/mL

$$$$
>  <polymerSequence>
WAYYHAGHSSFAVWT [compound 9]

>  <valueKind>
solubility

>  <observedMeasurement>
< 1 mg/mL

$$$$

Query block: Give a short answer stating reported solubility for FSWYFRHHRLMVAGP [compound 18] .
Result block: < 1 mg/mL

Query block: Give a short answer stating reported solubility for PFVVSDIAFMGLFYD [compound 3] .
Result block: < 1 mg/mL

Query block: Give a short answer stating reported solubility for ARFPKELRGSVRSAH [compound 14] .
Result block: > 1 mg/mL

Query block: Give a short answer stating reported solubility for RGWILDVVYLYPGPL [compound 17] .
Result block: < 1 mg/mL

Query block: Give a short answer stating reported solubility for IFRVLSRMLPGTSVI [compound 13] .
Result block: > 1 mg/mL

====

Experiment: Solubilization of 1 mg/mL peptides in culture medium, DMSO or urea
Assay type: physicochemical
Conditions: 1 mg/mL peptide; read-out: Solubility, Complete medium
Where a SMILES comes first, the peptide text is derived from it.
valueKind: solubility

Query block: Give a short answer stating reported solubility for CC(C)[C@H](NC(=O)[C@H](C)NC(=O)[C@@H](NC(=O)[C@@H]1CCCN1C(=O)[C@H](Cc1c[nH]cn1)NC(=O)[C@H](CCCNC(=N)N)NC(=O)[C@H](CCCNC(=N)N)NC(=O)[C@H](Cc1ccccc1)NC(=O)[C@H](Cc1c[nH]cn1)NC(=O)[C@H](Cc1ccccc1)NC(=O)[C@H](CS)NC(=O)[C@H](CCCNC(=N)N)NC(=O)[C@H](Cc1c[nH]cn1)NC(=O)[C@@H](N)CS)C(C)C)C(=O)N[C@@H](Cc1ccccc1)C(=O)O [compound 6] (H-CHRCFHFRRHPVAVF-OH; N-terminus and C-terminus assumed) .
Result block: < 1000 µg/mL

====

Test: Solubilization of 1 mg/mL peptides in culture medium, DMSO or urea
Assay type: physicochemical
Conditions: 1 mg/mL peptide; read-out: Solubility, 2% DMSO
Where no end group is shown, it is not given here.
valueKind: solubility

Query block: Give a short answer stating reported solubility for WSLLRIVYNRHSHSK [compound 16] .
Result block: < 1000 µg/mL

====

The following sequences are listed with their measured solubility values.
Assay: Solubilization of 1 mg/mL peptides in culture medium, DMSO or urea
Assay type: physicochemical
Conditions: 1 mg/mL peptide; read-out: Solubility, Complete medium
Description: In order to measure the capacity of the peptides to inhibit IL-10, it is necessary for them to be in solution in the culture medium in which the proliferation assay with MC/9 cells is conducted. To that end, an attempt was first made to dissolve the peptides in complete medium at the concentration of 1 mg/mL. […] Thus, the maximum concentration of solubilizing agent to be added which allows conducting the in vitro proliferation assay of MC/9 cells was first determined. […]
Where no end group is shown, it is not given here.

Reference set (5 entries):
>  <polymerSequence>
HRWMPHVFAVRQGAS [compound 7]

>  <solubility>
> 1000 µg/mL

$$$$
>  <polymerSequence>
FRSFHYHTGRWHWLP [compound 22]

>  <solubility>
< 1000 µg/mL

$$$$
>  <polymerSequence>
GAGVLTPFTWRRFHM [compound 10]

>  <solubility>
> 1000 µg/mL

$$$$
>  <polymerSequence>
RKLRPHWLHFHPVAV [compound 1]

>  <solubility>
> 1000 µg/mL

$$$$
>  <polymerSequence>
AKVPSFRRSSLGSVR [compound 4]

>  <solubility>
> 1000 µg/mL

$$$$

Query block: Give a short answer stating reported solubility for RFYHADMLLRHVLMM [compound 5] .
Result block: < 1000 µg/mL

Query block: Give a short answer stating reported solubility for GRFRHYSMLRHHSIR [compound 19] .
Result block: > 1000 µg/mL
